The reported numbers originate from PubChem BioAssay (NCATS).

- assay: qHTS of pediatric cancer cell lines to identify multiple opportunities for drug repurposing: Primary screen for RD cells (AID 1347104); note: potency is the fitted concentration of half-maximal effect; nearly all actives have a fitted effect of over 55% in size
- test-context: RD rhabdomyosarcoma viability, CellTiter-Glo luminescence, 48 h; series mostly up to 46 µM
Records with an inconclusive call do not appear. The source made the active and inactive calls. Calls come from the whole dose curve; as a rule, active = well fitted cell-killing curve with a large enough effect; inconclusive = small, poorly fitted or top-dose-only effect; inactive = flat fitted curve, though single readings scatter.
readout-label: Potency

// worked examples, Potency included
| smiles-notation | Potency |
| --- | --- |
| NC(=O)Nc1cc(-c2cccc(F)c2)sc1C(=O)N[C@H]1CCCNC1 | 3.72 µM (active) |
| COCCn1c2c([n+](Cc3cnccn3)c1C)C(=O)c1ccccc1C2=O | 0.0118 µM (active) |

Next compound, please.
// query Indicate its recorded Potency; the compound in question is C[C@@H](Oc1cc(-c2cnn(C3CCNCC3)c2)cnc1N)c1c(Cl)ccc(F)c1Cl
// result 16.6 µM (active)
